- System: HT-29
- MEASUREMENT DESCRIPTION: MTT cell viability assay
- Format: cell-based
- CONDITION DETAILS: Homo sapiens, Colon, 48 h, ± SD of triplicates
pIC50: −log10 of the molar value.
READOUT TYPE: pIC50

* [O-][n+]1onc(-c2ccccc2)c1CNc1ccc(Nc2nc(C(F)(F)F)nc3c2cnn3-c2ccc(Br)cc2)cc1 [12b] | 4.82
* CNC(=O)c1cc(Oc2ccc(NC(=O)Nc3ccc(Cl)c(C(F)(F)F)c3)cc2)ccn1 [Sorafenib, sorafenib, reference compound] | 4.96

---

- Test system: HOP-92
- MEASUREMENT DESCRIPTION: NCI-60 one-dose SRB screening
- Assay type: cell-based
- CONDITION DETAILS: Homo sapiens, HOP-92, Non-Small Cell Lung Cancer, 10 µM one dose, 48 h, read-out: growth percentage
READOUT TYPE: activity at 10 µM (%)

* Cc1nn(-c2ccccc2)c2nc(CCl)[nH]c(=O)c12 [13b] | 117
* [O-][n+]1onc(-c2ccccc2)c1CNc1ccc(Nc2nc(C(F)(F)F)nc3c2cnn3-c2ccc(Br)cc2)cc1 [12b] | 68.4
* Cc1nc(Nc2ccc(OCc3c(-c4ccccc4)no[n+]3[O-])cc2)c2c(C)nn(-c3ccccc3)c2n1 | 104
* Cc1nc(Nc2ccc(OCc3c(-c4ccccc4)no[n+]3[O-])cc2)c2cnn(-c3ccc(Br)cc3)c2n1 | 111

---

The following compounds are shown together with reported activity at 10 µM values.
- Test system: HOP-62
- MEASUREMENT DESCRIPTION: NCI-60 one-dose SRB screening
- Assay type: cell-based
- CONDITION DETAILS: Homo sapiens, HOP-62, Non-Small Cell Lung Cancer, 10 µM one dose, 48 h, read-out: growth percentage
READOUT TYPE: activity at 10 µM (%)

- Cc1nn(-c2ccccc2)c2nc(C(F)(F)F)nc(Nc3ccc(NCc4c(-c5ccccc5)no[n+]4[O-])cc3)c12 [12a]: 93.1
- Cc1nn(-c2ccc(Br)cc2)c2nc(CCl)[nH]c(=O)c12 [13c]: 98.5
- O=c1[nH]c(CNc2ccc(NCc3c(-c4ccccc4)no[n+]3[O-])cc2)nc2c1cnn2-c1ccccc1 [14a]: 105
- Cc1nc(Nc2ccc(OCc3c(-c4ccccc4)no[n+]3[O-])cc2)c2c(C)nn(-c3ccc(Br)cc3)c2n1 [6h]: 104
- Cc1nc(Nc2ccc(OCc3c(-c4ccccc4)no[n+]3[O-])cc2)c2cnn(-c3ccccc3)c2n1 [6b]: 103
- Cc1nn(-c2ccc(Br)cc2)c2nc(C(F)(F)F)nc(Nc3ccc(NCc4c(-c5ccccc5)no[n+]4[O-])cc3)c12 [12c]: 68.3
- Cc1nn(-c2ccccc2)c2nc(CCl)[nH]c(=O)c12 [13b]: 98.3
- O=c1[nH]c(CCl)nc2c1cnn2-c1ccccc1 [13a]: 125
- Cc1nn(-c2ccc(Br)cc2)c2nc(CNc3ccc(NCc4c(-c5ccccc5)no[n+]4[O-])cc3)[nH]c(=O)c12 [14c]: 116
- Nc1ccc(NCc2c(-c3ccccc3)no[n+]2[O-])cc1 [compound 11]: 136
- Cc1nc(Nc2ccc(OCc3c(-c4ccccc4)no[n+]3[O-])cc2)c2c(C)nn(-c3ccccc3)c2n1 [6d]: 107
- Cc1nn(-c2ccccc2)c2ncnc(Nc3ccc(OCc4c(-c5ccccc5)no[n+]4[O-])cc3)c12 [6c]: 105
- Cc1nc(Nc2ccc(OCc3c(-c4ccccc4)no[n+]3[O-])cc2)c2cnn(-c3ccc(Br)cc3)c2n1 [6f]: 110
- [O-][n+]1onc(-c2ccccc2)c1CNc1ccc(Nc2nc(C(F)(F)F)nc3c2cnn3-c2ccc(Br)cc2)cc1 [12b]: 77.9
- [O-][n+]1onc(-c2ccccc2)c1COc1ccc(Nc2ncnc3c2cnn3-c2ccc(Br)cc2)cc1 [6e]: 105
- [O-][n+]1onc(-c2ccccc2)c1COc1ccc(Nc2ncnc3c2cnn3-c2ccccc2)cc1 [6a]: 107
- Cc1nn(-c2ccc(Br)cc2)c2ncnc(Nc3ccc(OCc4c(-c5ccccc5)no[n+]4[O-])cc3)c12 [6g]: 94
- Cc1nn(-c2ccccc2)c2nc(CNc3ccc(NCc4c(-c5ccccc5)no[n+]4[O-])cc3)[nH]c(=O)c12 [14b]: 110
